target: T1, soluble human insulin receptor-immunoglobulin heavy chain chimera (sIR-Fc) (human, UniProt P06213 28-956, limits assumed, Eu3+ label (LANCE) in the TR-FRET assays); test: TR-FRET competition vs b-S175, sIR-Fc
T1 construct: extracellular domain; construct of Bass et al., 1996; also called HIR-immunoglobulin heavy chain chimera; not shown: immunoglobulin heavy chain constant domains
No end group written: not given here.
The entries below come with measured IC50 values attached.
// units = nM; emit number, no label

Solved entries:
{"binder": "EEDWLQRNANFYDWFVAELX (C-terminal Lig'; copies joined C-C by chemical linker 9, also called (EE-short-S175-Lig)2-9) [S380]", "endpoint.unit": "nM", "IC50": 10}
{"binder": "GSLDESFYDWFERQLGKK (also: biotin (b-RP9) or fluorescein (FITC-RP9) label where used, site not given here, also called S371; b-RP9) [RP9]", "endpoint.unit": "nM", "IC50": 6}

Now examine the next entry.
Task: So what does the record say about IC50 for FHENFYDWFVQRVSKK (also called D117) [H2C] ?
Result: 410

src = patent US20030236190A1
